The measurements presented in this section are drawn from PubChem BioAssay (NCI).

- System: A498 renal
- procedureSummary: NCI-60 one-dose screen, 48 h (100 = growth as untreated, 0 = no growth, -100 = all killed)
- experimentalContext: 10 µM unless noted
The panel holds about 83,000 compounds, 20% with a hit somewhere; the sample as a whole holds those more often.
Item-by-item account of growth
Give the value, in units of %, as a plain number.

O=C(Nc1ccccc1Cl)c1c[nH]c(=O)c(-c2ccc(N3CCCOC4(CC4)C3)cc2)c1 : 47.9

Form field growth for item Oc1ccccc1/C=N/c1ccccn1 on A498 renal: 89.5

// compound Clc1ccc(OCc2nc(-c3ccccc3)n[nH]2)c(Cl)c1 , assay A498 renal, growth value: 104

A498 renal growth of COc1cc2ncnc(Oc3ccc(NC(=O)Nc4ccc(CN5CCOCC5)c(C(F)(F)F)c4)c4ccccc34)c2cc1OC is -11.3

O=C(O)c1ccc(-n2cc(/C=N/Nc3ccc(F)cc3)c(-c3cccc(C(F)(F)F)c3)n2)cc1 on A498 renal gives growth = 69

Observed growth on A498 renal, entry C[C@@H]1CC2C3C[C@H](F)C4=CC(=O)C=C[C@]4(C)[C@@]3(F)[C@@H](O)C[C@]2(C)[C@@]1(O)C(=O)CO (stereo partly specified) , equals 123

Lab note: compound O=C(CSc1nnc(-c2ccccc2)o1)Nc1ccc(C(=O)/C=C/c2ccccc2)cc1 tested on A498 renal; recorded growth was 83.8

The compound O=C1C(SCCO)=C(SCCO)C(=O)N1c1ccc(-c2ccccc2)cc1 , tested on A498 renal, showed growth of 105

Considering O=C(Nc1ccc(-n2ccc3c(NC(=O)c4ccccc4)ncnc32)cc1)Nc1ccc(Cl)c(Cl)c1 , its growth with A498 renal was recorded as 90.5

Entry COc1ccc(-c2cnc(-c3ccc(F)cc3)[nH]2)cc1 ; assay system A498 renal; growth recorded at 97.1

Measured growth for this entry COc1cc(/C=C/C(=O)c2c(C)n([O-])c3cc(C)c(C)cc3[n+]2=O)cc(OC)c1OC on A498 renal: 41.8

----------
- Tested on: BT-549 breast
- procedureSummary: NCI-60 one-dose screen, 48 h
- experimentalContext: 10 µM unless noted
This is part of a sample that, as a whole, favours compounds with a hit. Of some 83,000 tested, about 20% had one in any assay. Active and inactive are the calls of the source. How the source made its calls: active means growth percent below 10; inactive means the rest.
Respond only with the outcome that fits, drawn from true (1) = active, false (0) = inactive

O=C(NCCNc1nccc(-c2c(-c3cccc(O)c3)nc3sccn23)n1)Nc1cc(C(F)(F)F)cc(C(F)(F)F)c1 : false (0)

Query string: For COc1ccc(C(=O)NC(=O)Nc2ccc3c(c2)NC(=O)/C3=C\c2[nH]c(C)c(C(=O)O)c2C)cc1 , which call appears in the assay record?
Result string: false (0)

Query string: Hello, I am checking results. What call was entered for COc1cc(/C=C/C(=O)c2c(C)[n+]([O-])c3ccccc3[n+]2[O-])ccc1O ?
Result string: false (0)

Query string: Would you mind telling me which call this test gave CCCCOc1nc2ccc(Cl)cc2cc1/C=C/C(=O)/C=C/c1ccc(Cl)cc1 ?
Result string: false (0)

Query string: For this molecule, state the assay outcome: COc1ccc2c(c1)nnc1c3cccnc3[nH]c21
Result string: true (1)

Query string: How was O=C(CNc1cccnc1)Nc1ccc(C(=O)/C=C/c2ccc(Cl)cc2)cc1 classified in this test?
Result string: false (0)

Query string: Give the logged outcome of this assay for the following molecule: c1ccc([Se]CCCN2CCN(CCC[Se]c3ccccc3)CC2)cc1
Result string: false (0)

----------
- System: SF-539 CNS
- procedureSummary: NCI-60 one-dose screen, 48 h
- experimentalContext: 10 µM unless noted
This is part of a sample that, as a whole, favours compounds with a hit. Of some 83,000 tested, about 20% had one in any assay. Activity calls are given as the source filed them. The calls were made as follows: active = growth percent below 10; inactive = the rest.
Could you please pick one outcome from this set? active, inactive

Query string: Give the logged outcome of this assay for the following compound: O=C(c1cc(-c2ccc(Cl)cc2)nc2ccccc12)N1N=C(c2ccccc2)CC1c1cc(-c2ccccc2)nn1-c1ccccc1 (stereo not drawn)
Result string: inactive

Query string: GET /call?item= O=C1CCC(=O)N1C1CCCCC1 returns the recorded outcome of this test.
Result string: inactive

Query string: For this compound, state the assay outcome: COc1cc(Br)c(-c2nc(-c3ccccc3)c(-c3ccccc3)n2Cc2ccccc2)cc1OC
Result string: inactive

Query string: Please state the recorded outcome for this compound: Cc1cccc(NC(=O)CCc2ccc(N3C(N)=NC(N)=NC3(C)C)cc2)c1
Result string: inactive

----------
- System: NCI-H460 lung
- procedureSummary: NCI-60 one-dose screen, 48 h (100 = growth as untreated, 0 = no growth, -100 = all killed)
- experimentalContext: 10 µM unless noted
Compounds without any hit were thinned out: in the full panel of roughly 83,000, 20% have a hit.
The following compounds are shown together with reported growth values.
Give the quantity in %, number only.

Worked examples, 2 compounds total:
CCOC(=O)c1[nH]c(-c2ccc(Cl)cc2)cc1-c1cccnc1 : 7.36
CCCCOc1c(N)cc(Cl)cc1C(=O)OCCN(CC)CC : 108

Entry CC(CN(C)C)CN1c2ccccc2CCc2ccccc21 (stereo not given) , growth reported as 103

GET /value?item= CCCCn1c(-c2cccc(OC)c2)nc2cc(OC)c(OC)cc2c1=O &field=growth returns 115

Form field growth, entry COc1ccc2c(c1)OC(N)=C(C#N)C2c1ccc(F)cc1 (stereo not given) : 15.8

Sample CCOC(=O)CSc1nnc(-c2cc3c([nH]c4ccccc43)c(-c3cccc(O)c3)n2)n1-c1ccc(C)cc1 ; growth observed: 103

growth in this record for Cc1[nH]n(C(=O)c2ccncc2)c(=O)c1N=Nc1ccc(S(=O)(=O)Nc2ccncn2)cc1 : 115

The recorded growth for COc1ccc2c(c1)nnn1c3ncccc3c(N=O)c21 is -70

Value of measured growth for the entry C=C1C(=O)O[C@H]2[C@H]1CC/C(C(=O)Nc1ccc(OC)c(C(N)=O)c1O)=C\CC[C@@]1(C)O[C@@H]21 : 92

Looking up COc1ccc(NC(=O)COCCOCCNC[C@@H]2C(=O)O[C@H]3[C@H]2CC/C(COC(=O)OC/C2=C/CC[C@@]4(C)O[C@H]4[C@H]4OC(=O)[C@@H](CN(C)C)[C@@H]4CC2)=C\CC[C@@]2(C)O[C@@H]32)c(O)c1C(N)=O , I found its growth recorded as 96

----------
- Test system: NCI/ADR-RES ovarian
- procedureSummary: NCI-60 one-dose screen, 48 h
- experimentalContext: 10 µM unless noted
This is part of a sample that, as a whole, favours compounds with a hit. Of some 83,000 tested, about 20% had one in any assay. Calls of active or inactive are those of the source. How the source made its calls: active means growth percent below 10; inactive means the rest.
Response enum: active, inactive

C[C@]12O[C@H]1[C@H](O)c1c(cc(O)c3c1C(=O)c1cccc(O)c1-3)C2=O : inactive
Cn1c2ccccc2c2ssc(=S)c21 : inactive
CC(=O)c1cc2c(c(O)c1C)C(=O)C(=O)c1c(O)cccc1-2 : active
O=C(N/N=C/c1ccccc1O)c1ccccc1O : inactive
CC(C(=O)O)N1C(N)=NNC1c1ccccc1O (stereo not given) : inactive

Query string: Outcome? C[C@]12CC[C@@H]3c4ccc(O)c(N)c4CC[C@H]3[C@@H]1CC[C@@H]2O
Result string: inactive

Query string: Which outcome was entered for the molecule CCCOC(=O)c1ccc([N+](=O)[O-])o1 in this test?
Result string: inactive

Query string: Outcome? Cc1c(NC(=O)c2sc3nc4c(cc3c2N)CN(Cc2ccccc2)CC4)cccc1C(F)(F)F
Result string: inactive

Query string: Could you check what this test reported for CCN(CC)C(=O)C1CCN(C(=O)c2ccccc2)CC1 ?
Result string: inactive

----------
- Test system: M14 melanoma
- procedureSummary: NCI-60 one-dose screen, 48 h
- experimentalContext: 10 µM unless noted
- Protocol: Growth inhibition of the M14 human tumor cell line is measured as a screen for anti-cancer activity. Cells are grown in 96 well plates and exposed to the test compound for 48 hours. Compounds are tested at a single concentration, which is 10^-5 M for most compounds. The reported endpoint is percent growth (GI% or GIPRCNT), where numbers from 0 - 100% represent growth inhibition, and numbers from -100% - 0 represent cell death. For example, a value of 40 represents 60% growth inhibition. […]
Compounds without any hit were thinned out: in the full panel of roughly 83,000, 20% have a hit. Activity calls are given as the source filed them. How the source made its calls: active means growth percent below 10; inactive means the rest.
API: response.call in active, inactive

ClC1c2ccccc2CCc2ccccc21 : inactive

Kindly review the next compound as well.
Query string: Field: outcome | Entry: COc1ccccc1S(=O)(=O)Nc1ccc2c3c(cc(-c4cnn(C5CC5)c4)nc13)C(=O)N2C
Result string: inactive

----------
- Tested on: MDA-MB-435 melanoma
- procedureSummary: NCI-60 one-dose screen, 48 h
- experimentalContext: 10 µM unless noted
This is part of a sample that, as a whole, favours compounds with a hit. Of some 83,000 tested, about 20% had one in any assay. Active and inactive are the calls of the source. Rule for the calls: active = growth percent below 10; inactive = the rest.
I would appreciate it if you answered using one of these outcomes: TRUE (active), FALSE (inactive)

CCCCN(CCCC)c1ccc(C(=N)c2ccc(N(C)C)cc2)cc1 : TRUE
COc1ccc2c(-c3ccc(F)cc3)c(C#N)c(=NC(C)=O)oc2c1 : TRUE
Clc1ccc(CN2COc3c(ccc4cccnc34)C2)cc1Cl : FALSE

Next up:
Query string: Record lookup: outcome of this test for NCC(=O)NS(=O)(=O)OC[C@H]1O[C@@H](n2cnc3c(N)ncnc32)[C@H](O)[C@@H]1O ?
Result string: TRUE
